Just for reference, patent US20220144922A1 is where these values come from.

Catalogue of binders with associated pKd
Biological target: T1, prefusion-stabilized RSV F ectodomain (DS-Cav1), subtype B (respiratory syncytial virus subtype B)
T1 construct: extracellular domain; also called Prefusion subtype B
Assay: BLI, IgG on sensor
pKd: −log10 of the molar value.
Measured attribute: pKd

>>> reported("ADI-15594 (antibody, V domains shown, IgG) VH: EVQLVESGGHLVQPGGSLRLSCAASGFTFSSYSMNWVRQAPGKGLEWISYISSSSSTMYYADSVKGRFTMSRDNAKNSLYLQMNSLRDEDTALYYCARDFPPINLAATTRNYYYYVMDVWGQGTTVTVSS VL: DIQLTQSPSSLSASVGDRVTITCRASQSISSYLNWYQQKPGKAPNLLIYATSNLKSGVPSRFSGSGSGTDFTLTISSLQPEDFATYYCQQSYSTSYTFGQGTKVDIK")
9.26
>>> reported("ADI-15596 (antibody, V domains shown, IgG) VH: EVQLVESGGALVKPGGSLRLSCVGTGLTFTTAYMSWARQAPGKGLEWVGRILSKSDGGTTDYPTPVKGRFTISRDESKNTLYLQMNSLKIEDTAVYYCTTDRGITARPIFDSWGQGTLVTVSS VL: QSVLTQPPSVSGALGRRVTISCTGSSSNIGAGYDVHWYRQLPGTAPKLLIYGNTKRPSGVPDRFSGSKYATSASLAITGLQADDDADYYCQSYDGGLSGYVFGTGTKVTVL")
7.32
>>> reported("ADI-15614 (antibody, V domains shown, IgG) VH: EVQLLESGGGLVKPGGSLRLSCAASGFTISGYNMFWVRQPPGKGLEWVSSITAGSSYLNYADSVKGRFIVSRDNAKNSLYLQMNSLRAEDTAVYFCARAPLLPAMMDLWGQGTTVTVSS VL: QSVLTQPPSVSGAPGQRVTISCTGSSSNIGAGYDVHWYQQLPGTAPKLLIYTNNNRPSGVPDRFSGSKSGTSASLAITGLQAEDEADYYCQSYDRSLNGYVFGTGTKLTVL")
9.33
>>> reported("ADI-15628 (antibody, V domains shown, IgG) VH: QVQLVQSGGGVVQPGRSLRLSCAASGFTFSDFSMHWVRQAPGKGLEWVALISNDGSNKYYSDSLKGSFIISRDNSKNTLYLQLNSLGAEDTALYYCARDAVPHYDYVWGNFDYWGPGTLVTVSS VL: QPVLTQPASVSASPGQSITISCTGTSSDVGGYNYVSWYQQHPGKAPKLIVYEVSNRPSGVSNRFSGSKSGNTASLTISGLQADDEADYYCSSYTSFTPVVFGGGTKVTVL")
9.18
>>> reported("ADI-15592 (antibody, V domains shown, IgG; also called Antibody Number 159) VH: EVQLVESGGALVKPGGSLRLSCVGTGLTFTTAYMSWARQAPGKGLEWVGRIKSKSDGGTTEYPTPVKGRFTISRDESKNTLYLQMNSLKIEDTAVYYCTTDRGITARPIFDSWGQGTLVTVSS VL: QSVLTQPPSVSGALGRRVTISCTGSSSNIGAGYDVHWYRQLPGTAPKLLIYGNTKRPSGVPDRFSGSKYATSASLAITGLQAEDDADYYCQSYDGGLSGYVFGTGTQLTVL")
7.32
